# Target System: CTHRC1-His (UniProt Q96CG8 30-243)
# Sequence (Q96CG8 other isoform, or with tags, fused parts or gaps): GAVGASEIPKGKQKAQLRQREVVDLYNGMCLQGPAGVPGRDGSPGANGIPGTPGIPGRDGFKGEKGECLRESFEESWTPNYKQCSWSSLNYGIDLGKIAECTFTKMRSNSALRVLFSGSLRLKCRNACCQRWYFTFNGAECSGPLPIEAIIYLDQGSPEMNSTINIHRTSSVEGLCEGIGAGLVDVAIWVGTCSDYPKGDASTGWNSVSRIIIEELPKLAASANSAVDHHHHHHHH
# Assay Overview: ELISA
Entries and their Kd
Write down the numeric answer in nM and omit the unit.

Example entries begin here.
Binder: hCMAb45 humanized anti-CTHRC1 antibody (antibody, V domains shown) VH: QVQLVESGAEVKKPGASVKVSCKASGYSFTDYIILWVRQAPGQGLEWMGAINPYYGSTVYGQKFQGRLTITADGSMSTAYMELSSLRSEDTAVYYCARSGYGYDESAMDYWGQGTLVTVSS VL: DIVMTQTPLSLPVTPGEPASISCRSSKSLLNSDGFTYLDWYLQKPGQSPQLLIYLVSNRFSGVPDRFSGSGSGTDFTLKISRVEAEDVGVYYCFQSNYLPLTFGQGTKLEIK
Val: 0.089

Binder: cCMAb96 anti-CTHRC1 chimeric antibody (antibody, V domains shown) VH: QVQLQQPGSELVRPGASVKLSCKASGYTFTSYWMHWVKQRPGQGLEWIGNIYPSSGTTNYDEKFKNKATLTVDTSSTTAYMHLSSLTSEDSAVYYCTTESYWGQGTTLTVSS VL: DIVMTQSPSSLSASLGDTITITCHASQNINVWLSWYQQKPGNIPKLLIYKASNLHTGVPSRFSGSGSGTGFTLTISSLQPEDIATYYCQQGQSYPLTFGGGTKLEIK
Val: 0.128

Binder: hCMAb96 humanized anti-CTHRC1 antibody (antibody, V domains shown) VH: QVQLVQSGAEVKKPGASVKVSCKASGYTFTSYWMHWVRQAPGQGLEWIGYIYPSSGTTNYNQKFQGRVTITADESTSTAYMELSPLRSEDTAVYYCTTESYWGQGTTVTVSS VL: DIQMTQSPSSLSASLGDTITITCHASQNINVWLAWYQQKPGKAPKLLIYKASNLHSGVPSRFSGSGSGTDFTLTISSLQPEDIATYYCQQGQSYPLTFGQGTKVEIK
Val: 0.131

Which measured Kd value corresponds to cCMAb45 anti-CTHRC1 chimeric antibody (antibody, V domains shown) VH: EVQLQQSGPELVKPGASVKISCKASGYSFTDYIMLWVKQSHGKSLEWIGNINPYYGSTSYNLKFKGKATLTVDKSSSTAYMQLNSLTSEDSAVYYCARSGYGYDESAMDYWGQGTSVTVSS VL: DVLMTQTPLSLPVNIGDQASISCKSTKSLLNSDGFTYLDWYLQKPGQSPQLLIYLVSNRFSGVPDRFSGSGSGTDFTLKISRVEAEDLGVYYCFQSNYLPLTFGSGTKLEIK ? 0.093
